- Tested on: Influenza A virus
- ASSAY NAME: Antiviral activity against Influenza A virus A/WSN/33(H1N1) expressing M2 proton channel S31N mutant infected in MDCK cells assessed as plaque formation at 1 uM preincubated for 30 mins followed by infection measured on day 2 post infection by naphthalene black dye-based assay relative to control
- Type: functional, A/WSN/1933(H1N1)
Grouping by measured Activity is done with the following cut points: band 1 = under 50%, band 2 = from 50% up to 70%, band 3 = 70% and over

> print(dat)
                                    compound  group.label
 1  c1csc(-c2cc(NC34CC5CC(CC(C5)C3)C4)no2)c1       band 1
 2  CC1(O)C2CC3CC1CC(NCc1cc(-c4cccs4)on1)(C3)C2 (stereo not drawn)       band 1
 3  COc1ccc(-c2cc(CNC34CC5CC(CC(C5)C3)C4)no2)cc1       band 2
 4  OC1C2CC3CC1CC(NCc1cc(-c4cccs4)on1)(C3)C2 (stereo not drawn)       band 1
 5  COc1ccc(-c2nc(CNC34CC5CC(CC(C5)C3)C4)no2)c(OC)c1       band 3
 6        CCCc1cc(CNC23CC4CC(CC(C4)C2)C3)no1       band 3
 7  c1coc(-c2cc(CNC34CC5CC(CC(C5)C3)C4)no2)c1       band 1
 8      CC(C)c1cc(CNC23CC4CC(CC(C4)C2)C3)no1       band 2
 9  COc1ccsc1-c1cc(CNC23CC4CC(CC(O)(C4)C2)C3)no1       band 1
10  Clc1ccccc1-c1nc(CNC23CC4CC(CC(C4)C2)C3)no1       band 3
11  Fc1cccc(F)c1-c1cc(CNC23CC4CC(CC(C4)C2)C3)no1       band 2
12  c1cc(-c2nc(CNC34CC5CC(CC(C5)C3)C4)no2)cs1       band 3
13  c1csc(-c2cc(CNC34CC5COC(CC(C5)C3)C4)no2)c1 (stereo not drawn)       band 2
14  OC12CC3CC(C1)CC(NCc1cc(-c4cccs4)on1)(C3)C2       band 1
15   c1c(CNC23CC4CC(CC(C4)C2)C3)noc1C1CCCCC1       band 2
16    C(NC12CC3CC(CC(C3)C1)C2)c1noc(C2CC2)n1       band 3
17  c1cc(-c2cc(CNC34CC5CC(CC(C5)C3)C4)no2)cs1       band 1
18  c1csc(-c2nc(CNC34CC5CC(CC(C5)C3)C4)no2)c1       band 2
19      c1c(CNC23CC4CC(CC(C4)C2)C3)noc1C1CC1       band 1
20  COc1ccccc1-c1nc(CNC23CC4CC(CC(C4)C2)C3)no1       band 2
21  c1csc(-c2nnc(CNC34CC5CC(CC(C5)C3)C4)s2)c1       band 1
22  Clc1ccccc1-c1cc(CNC23CC4CC(CC(C4)C2)C3)no1       band 3
